System: HT-29
Assay: NCI tumour cell line growth inhibition, 48 h
Active and inactive are the calls of the source. No stated cut-off is given here; in the data, active = GI50 up to about 1.1 µM and inactive = higher. Square brackets hold non-standard residues; d marks the D form. Peptide text beside a SMILES is read from it.
Experimental Readout: GI50

{"Molecule": "N=C(N)NCCC[C@H]1NC(=O)[C@@H](CCC(=O)O)NC(=O)[C@@H](CC(=O)O)NC(=O)[C@@H](CCC(=O)O)NC(=O)[C@H](Cc2c[nH]c3ccccc23)NC1=O (cyclo(W[dE][dD][dE][dR]))", "Experimental Readout": "GI50", "Recorded Measurement": "> 7.5 µM (inactive)"}
{"Molecule": "C=C1C(=O)O[C@H]2C1[C@H](OC(=O)/C(C)=C\\COC(C)=O)C[C@]1(CO1)[C@@H]1[C@H](O)[C@H]3O[C@@]3(C)[C@@H]12 (stereo partly drawn)", "Experimental Readout": "GI50", "Recorded Measurement": "19.1 µM (inactive)"}
{"Molecule": "C=C(C[N+](C)(C)C)N/N=C/c1oc(-c2ccc(OC)c(OC)c2)c(-c2ccc(OC)c(OC)c2)c1[N+](=O)[O-]", "Experimental Readout": "GI50", "Recorded Measurement": "16.9 µM (inactive)"}

----------
Tested on: NCI-H460
Experiment: NCI tumour cell line growth inhibition, 48 h
The source made the active and inactive calls. No stated cut-off is given here; in the data, active = GI50 up to about 1.1 µM and inactive = higher.
Recorded GI50 for the following molecules
Experimental Readout: GI50

{"Molecule": "O=[N+]([O-])c1ccc(C2=Nn3c(nnc3-c3ccccc3)SC2)o1", "Experimental Readout": "GI50", "Recorded Measurement": "18.6 µM (inactive)"}
{"Molecule": "O=C(CN1C(=O)c2ccccc2C1=O)OCC1CCCN2CCCCC12 (stereo unspecified)", "Experimental Readout": "GI50", "Recorded Measurement": "> 100 µM (inactive)"}
{"Molecule": "O=C(O)CN1CCNCCN(CC(=O)O)CCN(CC(=O)O)CCNCC1", "Experimental Readout": "GI50", "Recorded Measurement": "68.7 µM (inactive)"}
{"Molecule": "C=CCC1C2CCC(O[Si](C(C)C)(C(C)C)C(C)C)(C(C(=O)OC)C2)C1O (stereo unspecified)", "Experimental Readout": "GI50", "Recorded Measurement": "61.8 µM (inactive)"}
{"Molecule": "Cc1noc(/N=C2\\C=C(O)C(=O)c3ccccc32)c1C", "Experimental Readout": "GI50", "Recorded Measurement": "2.36 µM (inactive)"}
{"Molecule": "Oc1ccc(CNCc2ccccc2)c2cccnc12", "Experimental Readout": "GI50", "Recorded Measurement": "0.034 µM (active)"}
{"Molecule": "COc1ccc(NC(=O)/C(=C/c2ccccc2)C(C)=O)cc1", "Experimental Readout": "GI50", "Recorded Measurement": "21.6 µM (inactive)"}
{"Molecule": "C=CCN1C(=O)/C(=C/c2ccc(C)cc2)N=C1SC/C=C/C", "Experimental Readout": "GI50", "Recorded Measurement": "40.3 µM (inactive)"}
{"Molecule": "O=C1c2c(ccc3c2CCC3)CC12Cc1cc3c(cc1C2)CCC3", "Experimental Readout": "GI50", "Recorded Measurement": "> 100 µM (inactive)"}
{"Molecule": "Nc1n[n+](-c2ccccc2)no1", "Experimental Readout": "GI50", "Recorded Measurement": "27.6 µM (inactive)"}
{"Molecule": "Cc1cc(NS(=O)(=O)c2ccc(NC(=O)c3cccc4c(NNc5ccc(S(N)(=O)=O)cc5)c5ccccc5nc34)cc2)no1", "Experimental Readout": "GI50", "Recorded Measurement": "34.9 µM (inactive)"}

----------
// values below are reported GI50
System: TK-10
Assay: NCI tumour cell line growth inhibition, 48 h
Activity calls are given as the source filed them. Cut-off read from the data, not from the text of the source: active = GI50 up to about 1.1 µM and inactive = higher.
Experimental Readout: GI50

{"Molecule": "C1=Cc2cccc3occ(c23)C=C1", "Recorded Measurement": "36 µM (inactive)"}
{"Molecule": "COC(=O)CP1(=O)OC2C(C3CCC2(C)C3(C)C)N1c1cc(C(F)(F)F)cc(C(F)(F)F)c1 (stereo unspecified)", "Recorded Measurement": "24.7 µM (inactive)"}
{"Molecule": "COc1cc([N+](=O)[O-])c(S(=O)(=O)O)cc1N", "Recorded Measurement": "> 100 µM (inactive)"}
{"Molecule": "O=[N+]([O-])/C=C/COCc1cc2c(cc1Br)OCO2", "Recorded Measurement": "17.4 µM (inactive)"}
{"Molecule": "Oc1cc(-n2cccn2)c(O)cc1-n1cccn1", "Recorded Measurement": "26.8 µM (inactive)"}
{"Molecule": "Cc1noc(/N=C2\\C=C(O)C(=O)c3ccccc32)c1C", "Recorded Measurement": "> 100 µM (inactive)"}

----------
Tested on: A498
Assay: NCI tumour cell line growth inhibition, 48 h
Activity calls are given as the source filed them. Cut-off read from the data, not from the text of the source: active = GI50 up to about 1.1 µM and inactive = higher.
Possible outcomes: active, inactive

{"Compound": "N#CN1CC[C@@H]2CC3(CCC2C1)OCCO3 (some centres undefined)", "Assigned Label": "inactive"}
{"Compound": "COC(=O)CP1(=O)OC2C(C3CCC2(C)C3(C)C)N1c1cc(C(F)(F)F)cc(C(F)(F)F)c1 (centres undefined)", "Assigned Label": "inactive"}
{"Compound": "CCN1CCC(O)(c2ccc([N+](=O)[O-])cc2)C(C(=O)c2ccc([N+](=O)[O-])cc2)C1 (centres undefined)", "Assigned Label": "inactive"}
{"Compound": "O=C(O)CN1CCNCCN(CC(=O)O)CC1", "Assigned Label": "inactive"}
{"Compound": "CCOC(=O)C[n+]1cccc(C2(c3cc4ccccc4[nH]3)OCCO2)c1", "Assigned Label": "inactive"}
{"Compound": "O=C1Nc2cc(Cl)ccc2C(=O)N2CCC[C@@H]12", "Assigned Label": "inactive"}
{"Compound": "COc1cc2c(cc1OC)C(N)CC2=O (centres undefined)", "Assigned Label": "inactive"}
{"Compound": "CN(C)/C=N\\c1c(Br)cc(Br)c2nonc12", "Assigned Label": "inactive"}
{"Compound": "CCOC(=O)C1CC(C(=O)c2ccccc2)N2c3ccccc3-c3ccccc3C12 (centres undefined)", "Assigned Label": "inactive"}
{"Compound": "CC1CN(C)c2ccccc2N=C1NN (centres undefined)", "Assigned Label": "inactive"}
{"Compound": "O=C1/C(=C/c2ccco2)N=C2Sc3c([nH]cnc3=O)N12", "Assigned Label": "inactive"}
{"Compound": "Nn1nnc2ccccc21", "Assigned Label": "inactive"}
{"Compound": "COc1cc(C2c3cc4c(cc3OC(NCc3ccccc3)C2C)OCO4)cc(OC)c1OC (centres undefined)", "Assigned Label": "active"}
{"Compound": "O/N=C1/C(=C/c2ccc(OCc3ccccc3)cc2)CCCC1C(NO)c1ccc(OCc2ccccc2)cc1 (centres undefined)", "Assigned Label": "inactive"}

----------
Tested on: U-251
Experiment: NCI tumour cell line growth inhibition, 48 h
Activity calls are given as the source filed them. Rule as the data show it: active = GI50 up to about 1.1 µM and inactive = higher.
Labels: YES = active, NO = inactive

{"Molecule": "CC(=O)/C=C\\C(=O)NNS(=O)(=O)c1ccc(C)cc1", "Assigned Label": "NO"}
{"Molecule": "C/C(=N\\Nc1nc2cc(C)ccc2s1)c1ccccn1", "Assigned Label": "YES"}
{"Molecule": "COc1c(Cl)nc2ccccc2c1N=[N+]=[N-]", "Assigned Label": "NO"}
{"Molecule": "N#CC1=C(N)OC(c2cccc([N+](=O)[O-])c2)C1(C#N)C#N (stereo not given)", "Assigned Label": "NO"}
{"Molecule": "CNN1C(=O)c2c(N)c(C#N)c(-c3ccccc3)c(-c3ccccc3)c2C1=O", "Assigned Label": "NO"}
{"Molecule": "CN(C)CCNC(=O)Cn1ccc(=O)c2c([N+](=O)[O-])cccc21", "Assigned Label": "NO"}
{"Molecule": "CC(C)(C)c1cc(C(C)(C)C)c2c(c1O)OC(=O)CS2", "Assigned Label": "NO"}
{"Molecule": "O=C(Cc1ccccc1)NN1C(=O)C(Cl)C1c1ccccc1O (stereo not given)", "Assigned Label": "NO"}
{"Molecule": "Cn1cnc(N2CCCC2)c(C#N)c1=S", "Assigned Label": "NO"}
{"Molecule": "Cc1ccc(/N=N/c2c(C)nn(C(=O)CC(=O)Nc3ccccc3)c2C)cc1C", "Assigned Label": "NO"}
{"Molecule": "COC(=O)CCCC(=O)/C(=N\\Nc1ccc(Cl)cc1)Nc1c(Cl)cccc1Cl", "Assigned Label": "NO"}
{"Molecule": "COc1ccc(C(=O)N2CCc3c([nH]c4ccccc34)C2C(=O)O)o1 (stereo not given)", "Assigned Label": "NO"}
{"Molecule": "C=C1C(=O)O[C@H]2C1[C@H](OC(=O)/C(C)=C\\COC(C)=O)C[C@]1(CO1)[C@@H]1[C@H](O)[C@H]3O[C@@]3(C)[C@@H]12 (stereo not given in full)", "Assigned Label": "NO"}
{"Molecule": "O=C(Nc1ccc([N+](=O)[O-])cc1[N+](=O)[O-])C(=O)C(C(=O)c1ccc(Cl)c(Cl)c1)C1OC(=O)c2ccccc21 (stereo not given)", "Assigned Label": "NO"}
{"Molecule": "CCOc1ccc(N/C(=C(/C(Cl)=C(/Cl)N2CCCCC2)[N+](=O)[O-])n2nnc3ccccc32)cc1", "Assigned Label": "NO"}
{"Molecule": "NC(=S)N/N=C(/CCN1CCCC1)CC(C1=C(O)C2=CCCCC2OC1=O)c1ccccc1 (stereo not given)", "Assigned Label": "NO"}
{"Molecule": "O=C(Nc1ccc(C(F)(F)F)cc1[N+](=O)[O-])C(=O)Nn1c(S)nc2ccccc2c1=O", "Assigned Label": "NO"}
{"Molecule": "Nc1nc(SCCC/C=C/B(O)O)nc2c1ncn2C1OC(CO)C(O)C1O (stereo not given)", "Assigned Label": "NO"}
{"Molecule": "O=[N+]([O-])c1ccc2sc(/C=N/c3ccccn3)cc2c1", "Assigned Label": "NO"}
{"Molecule": "COc1ccccc1N1C(=O)/C(=C\\c2cc(OC)c(OC)c(OC)c2)S(=O)(=O)C1c1ccccc1 (stereo not given)", "Assigned Label": "NO"}
{"Molecule": "Cc1cn(C2CC(O)C(COC(=O)NCCC(F)(F)C(F)(F)C(F)(F)C(F)(F)F)O2)c(=O)[nH]c1=O (stereo not given)", "Assigned Label": "NO"}
{"Molecule": "Cc1nc2c(o1)C(=O)c1ccccc1/C2=N\\c1ccccc1", "Assigned Label": "NO"}
{"Molecule": "O=C1NC(=O)c2c1n(Cc1ccccc1)c(=O)n2Cc1ccccc1", "Assigned Label": "NO"}
{"Molecule": "Nc1c(-c2nc3ccccc3[nH]2)sc(=S)n1-c1ccccc1", "Assigned Label": "NO"}
{"Molecule": "CN(C)CC1(C)CC/C(=C\\c2ccc(Cl)cc2)C1=O (stereo not given)", "Assigned Label": "NO"}
